All figures here come from PubChem BioAssay AID1159580.

Assay: chemical genetic growth profiling, strain panel (AID 1159580);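 note: tested at 20 µM; growth read once vehicle control cultures reached saturation at 30 °C; lower values mean less growth of the strain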
Details: S. cerevisiae deletion strains, growth OD, locus YEL037C, strain rad23
The campaign covered roughly 5,500 compounds. About 2,000 (36%) were called active. Another 18% or so got no clear call; they are omitted. Cut-off read from the data, not from the text of the source: active = normalized growth mostly below about 0.91 (no sharp cut-off); inconclusive = no clear call, values can overlap the other calls; inactive = mostly above about 0.92. This is one part of the list.
Outcomes: active, inactive

COC(=O)c1c(OC)cc2c(c1C)Oc1c(Cl)c(O)c(Cl)c(C)c1C(=O)O2 = inactive
O=C(O)C1=CCCNC1 = inactive
O=C(CC(=O)c1ccccc1)c1ccccc1 = active
CC(=O)O[C@H]1CCC2(C)C3=C(CCC2C1(C)C)[C@]1(C)CCC(C(C)CCC=C(C)C)[C@@]1(C)CC3 (some centres not stated) = inactive
CCCSc1ccc2nc(NC(=O)OC)[nH]c2c1 = inactive
NCC(=O)c1ccccc1 = inactive
O=C(OCc1ccccc1)c1ccccc1 = inactive
Cc1nc(N)cc(C[n+]2csc(CCO)c2C)n1 = inactive
COC(=O)c1c(OC)cc2c(c1C)Oc1c(Cl)c(OC(C)=O)c(Cl)c(C)c1C(=O)O2 = inactive
CC(C)=CCCC(C)[C@@H]1CC[C@]2(C)C3=C(CC[C@@]12C)C1(C)CC[C@H](O)C(C)(C)C1CC3 (some centres not stated) = inactive
NCC(N)C(=O)c1ccccc1 (configuration not stated) = inactive
Oc1c(Cl)cc(Cl)cc1Sc1cc(Cl)cc(Cl)c1O = active
